Tested on: MDA-MB-231 breast
Assay: NCI-60 one-dose screen, 48 h (100 = growth as untreated, 0 = no growth, -100 = all killed)
Settings: 10 µM unless noted
This is part of a sample that, as a whole, favours compounds with a hit. Of some 83,000 tested, about 20% had one in any assay.
Here, each record is paired with measured growth data.
Dear colleague, please return just the value in %, with no unit written.

Below are worked cases with known answers.
COMPOUND	growth, %
NCCN1CCN(c2nc(-c3ccccc3)nc3nc(-c4ccccc4)oc23)CC1	-74.5
COc1ccc(Cn2cc3c(c2-c2ccccc2)CCCc2cnoc2-3)cc1	60.8
CC(=O)Oc1ccc(CCN2C(=O)CSC2=S)cc1	64.4

So, `COc1ccc([C@H]2c3[nH]c4ccccc4c3C[C@@H]3C(=O)N(C4CCN(Cc5ccccc5)CC4)CC(=O)N23)c(OC)c1` ? Its growth was 77.7

So, `Cc1cc(C(=O)Nc2ccc(SC#N)cc2)c(C)o1` ? Its growth was 92.4

So, `C(=C(\C1=NCCN1)n1cnc2ccccc21)/c1cccc2ccccc12` ? Its growth was 81

So, CC1CCc2c(sc3nc(SCC(=O)N/N=C/c4cccc(O)c4O)n(-c4ccccc4)c(=O)c23)C1 (centres undefined) ? Its growth was 84.6

So, `ClC(Cl)c1nc(-c2cccs2)n2nc(-c3ccccc3)cc2n1` ? Its growth was -26.9

So, `CC[C@H](C)[C@H]1NC(=O)[C@@H]([C@H](O)C(C)C)NC(=O)[C@@H](C)N(C)C(=O)[C@H](C)N(C)C(=O)[C@H](CC(C)C)NC(=O)[C@H](CC(C)C)N(C)C(=O)[C@H](C)N(C)C1=O` ? Its growth was 8.22

----------
System: MDA-MB-231 breast
Assay: NCI-60 one-dose screen, 48 h (100 = growth as untreated, 0 = no growth, -100 = all killed)
Conditions: 10 µM unless noted
About 83,000 compounds went through this panel and 20% of them were active in at least one assay; those are over-represented in the sample as a whole.
Label scheme for growth: bucket A: < 40%; bucket B: ≥ 40% and < 70%; bucket C: ≥ 70%

Examples from the recorded data:
COMPOUND	CLASS NAME
Cc1ccc(NC(=O)c2ccc(CN3CCN(C)CC3)c(C(F)(F)F)c2)cc1Oc1ccc(-c2[nH]nc3ncnc(N)c23)cc1	bucket B
COc1cccc(/C=C/C(=O)c2ccc(NC(=O)COc3cccc4cccnc34)cc2)c1	bucket C
C=CCn1c(SCC(=O)Nc2ccc(OC)cc2)nnc1-c1ccc(Cl)cc1	bucket C

Please classify: `C#CCOc1ccc(/C=N/Nc2nc(-c3cc(Cl)ccc3Cl)cs2)cc1` bucket C

Please classify: `CC(C)=CCc1c(O)c(CC=C(C)C)c2c(c1O)C(=O)C1=C[C@@H]3C[C@H]4C(C)(C)O[C@@](C/C=C(\C)C(=O)O)(C3=O)[C@@]14O2` bucket A

Please classify: `O=S(=O)(Nc1ccc(I)c(Cl)c1)c1ccc(-c2cnc(C3CC3)o2)cc1` bucket B

Please classify: CCN1C(=O)N(CC)C2SC(N/N=C/c3ccccc3F)=NC21 (centres undefined) bucket A

Please classify: `C/C(=N\NC(=S)Nc1ccc(Br)cc1)c1cc2ccccc2oc1=O` bucket A

----------
System: OVCAR-5 ovarian
Experiment: NCI-60 one-dose screen, 48 h
Settings: 10 µM unless noted
The panel holds about 83,000 compounds, 20% with a hit somewhere; the sample as a whole holds those more often. The source made the active and inactive calls. Rule for the calls: active = growth percent below 10; inactive = the rest.
Your response should consist of one outcome taken from 1 for active, 0 for inactive

Examples from the recorded data:
COMPOUND	CLASS NAME
COc1cc(/C=N/n2cnc3oc(-c4ccccc4)cc3c2=N)cc(CN2CCN(C)CC2)c1O	0
CC1OC(O[C@@H]2[C@H](O)C(CO)OC(O[C@H]3COC(O[C@H]4CC[C@]5(C)[C@H]6CC[C@]78OC[C@@]9(CC[C@](C)(C=O)C[C@H]97)C(=O)C[C@@]8(C)[C@]6(C)CC[C@H]5C4(C)C)[C@@H](O)[C@@H]3O)[C@H]2OC2OC[C@@H](O)[C@@H](O)[C@@H]2O)[C@@H](O)[C@@H](O)[C@H]1O (stereo not given in full)	0
O=C1Nc2ccc(Cl)cc2/C1=C/c1ccc(OCc2ccc(Br)cc2F)cc1	0
Cn1c2ccccc2c2c3c(c4c5ccc(Br)cc5oc4c21)C(=O)N(O)C3=O	0
COc1ccc2c(C3=C(c4cn(C)c5ccccc45)C(=O)NC3=O)coc2c1	0

Test call for this compound, please: CCN1C(=O)N(CC)C2C1NN=C1SC(c3ccccc3)=CC(=O)N12 (stereo not given) 0

Test call for this compound, please: `Cc1cc(NS(=O)(=O)c2ccc(-c3cnc(C4CC4)o3)cc2)ccc1I` 0

Test call for this compound, please: `Oc1ccc(CSc2nnc(-c3cnccn3)n2-c2ccccc2)c2cccnc12` 0

Test call for this compound, please: CC(=O)c1ccc(NC(=O)COc2ccc(C3SCC(=O)N3c3ccc(Br)cc3)cc2)cc1 (stereo not given) 0

Test call for this compound, please: `C=C1C(=O)O[C@@H]2C[C@@H](C)/C=C\C(=O)[C@](C)(OC(C)=O)C[C@H](OC(=O)/C(C)=C\C)[C@@H]12` 1

Test call for this compound, please: `COc1cc2cc(Oc3ccc(NC(=O)c4cccc(C(F)(F)F)c4)cc3)c(C)nc2cc1OCCN(C)C` 0

----------
Tested on: A549/ATCC NSCLC
Experiment: NCI-60 one-dose screen, 48 h
Settings: 10 µM unless noted
This is part of a sample that, as a whole, favours compounds with a hit. Of some 83,000 tested, about 20% had one in any assay. Calls of active or inactive are those of the source. The calls were made as follows: active = growth percent below 10; inactive = the rest.
Your response should consist of one outcome taken from active, inactive

Examples from the recorded data:
>>> print(df.to_string())
                                   compound  class_name
0  COc1cc(/C=C/C(=O)c2ccc(NC(=O)COc3cccc4cccnc34)cc2)cc(OC)c1OC    inactive
1  COC1=C(c2ccccc2)C(=O)C(OC)=C(c2ccccc2)C1=O    inactive

Moving on to another compound below.
Test call for this compound, please: `COc1ccc(S(=O)(=O)NCCCNc2nccc(-n3cnc4ccccc43)n2)cc1` inactive

----------
Here, each record is paired with measured growth data.
Tested on: UACC-257 melanoma
Experiment: NCI-60 one-dose screen, 48 h (100 = growth as untreated, 0 = no growth, -100 = all killed)
Settings: 10 µM
About 83,000 compounds went through this panel and 20% of them were active in at least one assay; those are over-represented in the sample as a whole.
Dear colleague, please return just the value in %, with no unit written.

Below are worked cases with known answers.
>>> df
                    structure_smiles_string  measured_endpoint  reported
0  O=C(CCCCCCN1CC(=O)N2[C@@H](c3cccc(Cl)c3)c3[nH]c4ccccc4c3C[C@H]2C1=O)NO             growth        44
1     Oc1ccc(CSc2nnc(-c3ccccc3)o2)c2cccnc12             growth      6.39
2  COc1ccccc1N1CCN(C2=NN=C(c3cccc(Cl)c3)c3ccccc3C2)CC1             growth      56.3
3                 O=C1CC2(CCOCC2)Oc2ncccc21             growth      79.2
4  CNC(=O)c1cc(Oc2ccc3nc(NC(=O)c4cc(C)cc(C)c4)sc3c2)ccn1             growth      89.1
5  CCOC(=O)Nc1cccc(-n2cnc3cc(-c4ccc(O)cc4)ccc32)c1             growth      83.6
6  CC1=C2C(=C[C@@](C)(COS(N)(=O)=O)[C@@H]2O)C(=O)[C@](C)(O)C12CC2             growth      89.3
7  O=C1[C@H]2Cc3c([nH]c4ccccc34)[C@H](c3ccc(Cl)cc3)N2C(=O)CN1C1CCN(Cc2c(Cl)cccc2Cl)CC1             growth       101

Now look at this entry.
So, `C/C(=C(/c1ccc(O)cc1)c1ccc(OCCN2CCCCCC2)cc1)c1ccccc1` ? Its growth was -27

----------
Tested on: RXF 393 renal
Assay: NCI-60 one-dose screen, 48 h (100 = growth as untreated, 0 = no growth, -100 = all killed)
Conditions: 10 µM unless noted
Compounds without any hit were thinned out: in the full panel of roughly 83,000, 20% have a hit.
MEASURED ENDPOINT: growth (%)
Dear colleague, please return just the value in %, with no unit written.

Below are worked cases with known answers.
COMPOUND	TESTED TARGET	UNITS TEXT	REPORTED
C=C(C)[C@@H]1CC[C@]2(COS(C)(=O)=O)CC[C@]3(C)[C@H](CC[C@@H]4[C@@]5(C)CCCNC(C)(C)[C@@H]5CC[C@]43C)[C@@H]12	RXF 393 renal	%	85.3
CCNCc1c(-c2cccc(OC(F)(F)F)c2)[nH]c2ccc(N3CCCC3)cc2c1=O	RXF 393 renal	%	-9.04
O=S(=O)(Nc1cc(Cl)c(F)c(Cl)c1)c1ccc(-c2cnc(C3CC3)o2)cc1	RXF 393 renal	%	5.28
COc1cc(O)c2c(c1)/C=C/C[C@H](O)[C@H](O)C(=O)/C=C\C[C@H](C)OC2=O	RXF 393 renal	%	-56.9
CCN1C(=O)N(CC)C2SC(N/N=C/c3cccs3)=NC21 (stereo unspecified)	RXF 393 renal	%	72.5
COc1ccc(N2CCN(C(=O)CSc3ccc(-c4nc5cc(C)c(C)cc5[nH]4)cn3)CC2)cc1	RXF 393 renal	%	93.6
CC(C)(C)n1nnnc1C(Nc1nccs1)c1cc2cccc3ccc4cccc1c4c32 (stereo unspecified)	RXF 393 renal	%	92.1
CC(C)=CCc1c(O)c(CC=C(C)C)c2c(c1O)C(=O)C1=C[C@@H]3C[C@H]4C(C)(C)O[C@@](C/C=C(\C)C(=O)O)(C3=O)[C@@]14O2	RXF 393 renal	%	-82.2

Now look at this entry.
Observed growth, RXF 393 renal, CCOC(=O)C1=C(C)Nc2nnc(Nc3ccccc3)n2C1c1ccccc1 (stereo unspecified) : 80
